All figures here come from ChEMBL document CHEMBL1149965.

molecular target: Protein kinase C beta type (Homo sapiens); test: Inhibition of Protein kinase C beta 2
Sequence (P05771 whole entry): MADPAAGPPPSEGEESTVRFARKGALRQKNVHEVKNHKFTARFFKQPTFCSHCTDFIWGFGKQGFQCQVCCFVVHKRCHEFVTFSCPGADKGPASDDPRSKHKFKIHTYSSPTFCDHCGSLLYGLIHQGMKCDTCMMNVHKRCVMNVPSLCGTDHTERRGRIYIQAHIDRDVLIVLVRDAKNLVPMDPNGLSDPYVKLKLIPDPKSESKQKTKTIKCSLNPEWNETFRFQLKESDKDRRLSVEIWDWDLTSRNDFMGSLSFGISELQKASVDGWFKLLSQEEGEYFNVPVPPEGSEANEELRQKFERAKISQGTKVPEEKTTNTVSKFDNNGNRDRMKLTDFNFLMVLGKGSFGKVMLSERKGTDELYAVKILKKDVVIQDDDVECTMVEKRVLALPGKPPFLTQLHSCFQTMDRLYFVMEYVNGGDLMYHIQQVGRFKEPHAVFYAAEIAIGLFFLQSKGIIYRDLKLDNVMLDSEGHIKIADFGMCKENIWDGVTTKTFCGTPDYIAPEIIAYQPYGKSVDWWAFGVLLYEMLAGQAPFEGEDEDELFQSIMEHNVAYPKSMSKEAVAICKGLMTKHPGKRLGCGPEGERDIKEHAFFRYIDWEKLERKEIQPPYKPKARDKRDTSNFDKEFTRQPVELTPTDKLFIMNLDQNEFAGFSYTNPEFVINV
value.kind: IC50 (nM)

Some solved cases for reference:
>  <compound>
O=C(NC1C2CCC(C2)C1OC(=O)c1cc(O)c(C(=O)c2c(O)cccc2C(=O)O)c(O)c1)c1ccc(O)cc1 (stereo in doubt)

>  <test.target>
Protein kinase C beta type (Homo sapiens)

>  <measured.value>
6900

$$$$
>  <compound>
CC1(C)C2CCC1(C)C(OC(=O)c1cc(O)c(C(=O)c3c(O)cccc3C(=O)O)c(O)c1)C2NC(=O)c1ccc(O)cc1 (configuration not stated)

>  <test.target>
Protein kinase C beta type (Homo sapiens)

>  <measured.value>
80

$$$$
>  <compound>
O=C(NC1C2CC(C3CCCC32)C1OC(=O)c1cc(O)c(C(=O)c2c(O)cccc2C(=O)O)c(O)c1)c1ccc(O)cc1 (stereo in doubt; anti)

>  <test.target>
Protein kinase C beta type (Homo sapiens)

>  <measured.value>
30

$$$$
>  <compound>
O=C(NC1C2CCC(C2)C1OC(=O)c1cc(O)c(C(=O)c2c(O)cccc2C(=O)O)c(O)c1)c1ccc(O)cc1 (racemic)

>  <test.target>
Protein kinase C beta type (Homo sapiens)

>  <measured.value>
30

$$$$

[P] O=C(N[C@@H]1CNCCCC1OC(=O)c1cc(O)c(C(=O)c2c(O)cccc2C(=O)O)c(O)c1)c1ccc(O)cc1 (mixture of isomers)
[Q] CN1C2CCC1C(NC(=O)c1ccc(O)cc1)C(OC(=O)c1cc(O)c(C(=O)c3c(O)cccc3C(=O)O)c(O)c1)C2 (stereo in doubt; anti)
For P and Q , which recorded IC50 is lower? Choose, then provide that item's label.
P
(P: 44 nM, Q: 14000 nM)

[1] O=C(NC1CN2CCC(CC2)C1OC(=O)c1cc(O)c(C(=O)c2c(O)cccc2C(=O)O)c(O)c1)c1ccc(O)cc1 (stereo in doubt; anti)
[2] O=C(NC1CN2CCC(CC2)C1OC(=O)c1cc(O)c(C(=O)c2c(O)cccc2C(=O)O)c(O)c1)c1ccc(O)cc1 (stereo in doubt; syn)
For 1 and 2 , which recorded IC50 is lower? Choose, then provide that item's label.
1
(1: 69 nM, 2: 34000 nM)

[P] O=C(NC1CCC[C@@H]1OC(=O)c1cc(O)c(C(=O)c2c(O)cccc2C(=O)O)c(O)c1)c1ccc(O)cc1 (mixture of isomers)
[Q] CN1C2CCC1C(NC(=O)c1ccc(O)cc1)C(OC(=O)c1cc(O)c(C(=O)c3c(O)cccc3C(=O)O)c(O)c1)C2 (stereo in doubt; syn)
[R] O=C(NC1C2CC(C3CCCC32)C1OC(=O)c1cc(O)c(C(=O)c2c(O)cccc2C(=O)O)c(O)c1)c1ccc(O)cc1 (stereo in doubt; syn)
Put these in order: smallest IC50 first, largest last. Answer format: the labels, in the requested order.
P, R, Q
(P: 50 nM, R: 2100 nM, Q: 22000 nM)
